# target under test: UniProt Q15761
# Sequence (Q15761 whole entry): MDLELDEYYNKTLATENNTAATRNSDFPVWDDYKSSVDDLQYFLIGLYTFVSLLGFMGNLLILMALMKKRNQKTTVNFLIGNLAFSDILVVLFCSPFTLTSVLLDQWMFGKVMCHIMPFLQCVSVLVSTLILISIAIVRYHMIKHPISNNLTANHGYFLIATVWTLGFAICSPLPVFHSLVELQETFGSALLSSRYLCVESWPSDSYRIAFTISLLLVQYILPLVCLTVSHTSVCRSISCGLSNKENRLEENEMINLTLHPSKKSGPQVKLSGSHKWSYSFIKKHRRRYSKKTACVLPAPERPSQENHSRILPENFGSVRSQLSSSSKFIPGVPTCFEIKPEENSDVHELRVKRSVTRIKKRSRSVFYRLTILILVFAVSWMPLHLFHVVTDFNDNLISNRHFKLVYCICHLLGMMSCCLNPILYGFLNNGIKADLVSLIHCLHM
# method description: Binding affinity towards human neuropeptide Y receptor type 5 using [125I]-PYY as radioligand in baculovirus-infected Sf9 cells
pKi: −log10 of the molar value.
Decision: pKi >= 8 yields fulfilled, all other cases yield not fulfilled.

## Input Say whether `FC(F)(F)c1ccc(-c2c[nH]c(-c3cccnc3)n2)cc1` shows pKi of 8 or more.
## Output not fulfilled

## Input Say whether `COc1ccc(-c2c[nH]c(-c3cccnc3)n2)cc1OC` shows pKi of 8 or more.
## Output not fulfilled

## Input Say whether `Clc1ccc(-c2c[nH]c(-c3ccncc3)n2)cc1Cl` shows pKi of 8 or more.
## Output fulfilled

## Input Say whether `Cc1[nH]c(-c2cccnc2)nc1-c1cccc(Cl)c1` shows pKi of 8 or more.
## Output not fulfilled

## Input Say whether `Fc1ccc(-c2c[nH]c(-c3cccnc3)n2)cc1F` shows pKi of 8 or more.
## Output not fulfilled
